Ref: PubChem BioAssay AID1159580

Assay: chemical genetic growth profiling, strain panel (AID 1159580);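 also: tested at 20 µM; growth read once vehicle control cultures reached saturation at 30 °C; 1 = growth at the plate median or of vehicle wells; lower values mean less growth of the strain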
Settings: S. cerevisiae deletion strains, growth OD, locus YOR265W, strain rbl2, hits give low values
The whole screen tested about 5,500 compounds, of which about 2,000 (36%) were called active. About 18% were inconclusive and are not listed. The list shows a part of the results.
Observable: normalized growth

INSERT INTO measurements (compound, observable, result_number) VALUES
  ('CC(=O)Oc1cc(OC(C)=O)c2c(c1)O[C@H](c1ccc(OC(C)=O)c(OC(C)=O)c1)[C@H](OC(C)=O)C2', 'normalized growth', 1.01),
  ('Clc1ccc(C(c2ccc(Cl)cc2)C(Cl)(Cl)Cl)cc1', 'normalized growth', 1.01),
  ('O=C1CCC(N2C(=O)c3ccccc3C2=O)C(=O)N1 (stereo not given)', 'normalized growth', 1.01),
  ('COc1ccc(C2CNC(=O)C2)cc1OC1CCCC1 (stereo not given)', 'normalized growth', 1.01),
  ('O=C1C(Cl)=C(Cl)C(=O)C(Cl)=C1Cl', 'normalized growth', 0.959),
  ('CC1CCc2cc(F)cc3c(=O)c(C(=O)O)cn1c23 (stereo not given)', 'normalized growth', 0.982),
  ('CCCCCCCCCCC[C@@H](C[C@H]1OC(=O)[C@H]1CCCCCC)OC(=O)[C@@H](CC(C)C)NC=O', 'normalized growth', 1.05),
  ('COc1ccc(C(c2ccc(OC)cc2)C(Cl)(Cl)Cl)cc1', 'normalized growth', 1.01),
  ('O=C(Oc1cc(O)cc2c1C[C@@H](OC(=O)c1cc(O)c(O)c(O)c1)[C@@H](c1cc(O)c(O)c(O)c1)O2)c1cc(O)c(O)c(O)c1', 'normalized growth', 1.02),
  ('C=CC[C@]1(O)CCC2C3CCC4=CC(=O)CCC4=C3C=C[C@@]21C (stereo not given in full)', 'normalized growth', 0.998);

====

Experiment: chemical genetic growth profiling, strain panel (AID 1159580);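 also: tested at 20 µM; growth read once vehicle control cultures reached saturation at 30 °C; 1 = growth at the plate median or of vehicle wells; lower values mean less growth of the strain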
Conditions: S. cerevisiae deletion strains, growth OD, locus YMR307W, strain GAS1, hits give low values
The campaign covered roughly 5,500 compounds. About 2,000 (36%) were called active. Not shown: some 18% with an inconclusive outcome. The list shows a part of the results.
Lab note: anything with normalized growth below 1 is marked Fulfilled; values at 1 or higher are marked Not fulfilled.

INSERT INTO assay_data (structure_notation, category_label) VALUES
  ('COc1ccc([C@H]2Oc3c(I)c(OC)cc(OC)c3C[C@@H]2O)cc1OC', 'Not fulfilled'),
  ('Oc1cc(O)c2c(c1)O[C@H](c1cc(O)c(O)c(O)c1)[C@H](O)C2', 'Not fulfilled'),
  ('CSc1c(-c2ccccc2)c(N)nn1S(=O)(=O)c1ccccc1', 'Fulfilled'),
  ('CCCCC[C@H]1C(=O)O[C@H](C)[C@H](NC(=O)c2cccc(NC=O)c2O)C(=O)O[C@@H](C)[C@@H]1OC(=O)CC(C)C', 'Fulfilled'),
  ('CC(=O)Oc1cc(OC(C)=O)c2c(c1)O[C@H](c1ccc(OC(C)=O)c(OC(C)=O)c1)[C@@H](OC(C)=O)C2', 'Not fulfilled');

====

normalized growth overview
Test: chemical genetic growth profiling, strain panel (AID 1159580);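 also: tested at 20 µM; growth read once vehicle control cultures reached saturation at 30 °C; 1 = growth at the plate median or of vehicle wells; lower values mean less growth of the strain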
Settings: S. cerevisiae deletion strains, growth OD, locus YNL175C, strain NOP13, hits give low values
Hit rate of the full screen: of about 5,500 compounds, about 2,000 (36%) were called active. Inconclusive results (about 18%) are left out. The list shows a part of the results.
Observable: normalized growth

INSERT INTO results (compound, result_number) VALUES
  ('CN(C)CCCC1(c2ccc(F)cc2)OCc2cc(C#N)ccc21 (centres undefined)', 1),
  ('COc1cc(C(O)CO)ccc1O (centres undefined)', 0.998),
  ('CCCCCCCCC(=O)NCc1ccc(O)c(OC)c1', 0.972),
  ('CCCCCCCC/C=C\CCCCCCCC(=O)NCCc1ccc(O)c(O)c1', 0.999);
